Target: T1, CRBN, Q96SW2;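 note: pooled lentiviral library of zinc finger degron-EGFP fusions in mCherry-positive Jurkat cells, FACS-sorted after compound exposure, with degron abundance counted by next-generation sequencing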
T1 chain: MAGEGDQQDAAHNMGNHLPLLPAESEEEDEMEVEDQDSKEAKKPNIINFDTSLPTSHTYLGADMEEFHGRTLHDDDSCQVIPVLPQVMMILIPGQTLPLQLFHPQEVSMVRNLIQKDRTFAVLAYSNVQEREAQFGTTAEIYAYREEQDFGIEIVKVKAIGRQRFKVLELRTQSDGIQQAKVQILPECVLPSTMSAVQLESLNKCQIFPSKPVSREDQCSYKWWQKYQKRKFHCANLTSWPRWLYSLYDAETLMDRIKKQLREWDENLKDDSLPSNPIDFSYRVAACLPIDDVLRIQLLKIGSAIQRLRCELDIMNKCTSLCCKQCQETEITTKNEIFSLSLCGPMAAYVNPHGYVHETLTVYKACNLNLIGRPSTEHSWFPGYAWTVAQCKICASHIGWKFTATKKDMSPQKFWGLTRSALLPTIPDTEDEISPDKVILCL
Experiment: log2 fold change of degron read counts, EGFP-low vs EGFP+ sorted cells (limma voom), compound-induced degradation; higher = more compound-induced degradation of the degron-EGFP fusion; degrons are variants of IKZF1/3 zinc finger 2; compound dose not given here
Conditions: Jurkat; 18 h; compound: compound 19 (5-tert-butyl-thalidomide)
The full ranking holds about 8,300 sequences; the median of “log2 fold change of degron read counts, EGFP-low vs EGFP+ sorted cells (limma voom), compound-induced degradation” is about -1.1, and the highest 2% start at about 3.2. The entries come from a sample that favours the highest values as a whole.
endpoint.label: log2 fold change of degron read counts
// return just the number, without any unit appended

Here are 3 sequences together with their reported answers.
polymer.sequence: FNCPQCGADFTQKGNLLRHIKL [46F_47N_49P_50Q_52G_53A_54D_55F_67L_, Q9UKT9]
log2 fold change of degron read counts: -3.44
//
polymer.sequence: LICPICGFPCTQKGNLLRHIKL [46L_47I_49P_50I_52G_53F_54P_55C_67L_, Q9UKT9]
log2 fold change of degron read counts: 0.112
//
polymer.sequence: LKCPICGFRCTQKGNLLRHIKL [46L_47K_49P_50I_52G_53F_54R_55C_67L_, Q9UKT9]
log2 fold change of degron read counts: -1.28

(Q) // fetch log2 fold change of degron read counts given entry FVCDVCGAGFTQKGNLLRHIKL [46F_47V_49D_50V_52G_53A_54G_55F_67L_, Q9UKT9]
(A) -0.789

(Q) Please list log2 fold change of degron read counts recorded for the sequence LACPICGFRCTQKGNLLRHIKL [46L_47A_49P_50I_52G_53F_54R_55C_67L_, Q9UKT9]
(A) 3.37

(Q) Fill in reported log2 fold change of degron read counts for this entry: LFCPICGFRCTQKGNLLRHIKL [46L_47F_49P_50I_52G_53F_54R_55C_67L_, Q9UKT9]
(A) 3.24

(Q) Give the reported value of log2 fold change of degron read counts for this record: FACEVCGAQFTQKGNLLRHIKL [46F_47A_49E_50V_52G_53A_54Q_55F_67L_, Q9UKT9]
(A) 3.49

(Q) # return recorded log2 fold change of degron read counts for entry LHCPICGFRCTQKGNLLRHIKL [46L_47H_49P_50I_52G_53F_54R_55C_67L_, Q9UKT9]
(A) 2.28

(Q) Supply measured log2 fold change of degron read counts of FWCEVCGAQFTQKGNLLRHIKL [46F_47W_49E_50V_52G_53A_54Q_55F_67L_, Q9UKT9] in your reply.
(A) 3.44

(Q) Check the records and state log2 fold change of degron read counts for FECEVCGAQFTQKGNLLRHIKL [46F_47E_49E_50V_52G_53A_54Q_55F_67L_, Q9UKT9]
(A) -0.548
